# experimentalSystem: T1, apical domain of human CD71 (human, UniProt P02786 189-383, limits assumed)
# T1 construct: domain: apical domain; Screen 4 panned on human apical domains, the ELISA text says only 'apical domain'
# T1 sequence (P02786 189-383 limits assumed): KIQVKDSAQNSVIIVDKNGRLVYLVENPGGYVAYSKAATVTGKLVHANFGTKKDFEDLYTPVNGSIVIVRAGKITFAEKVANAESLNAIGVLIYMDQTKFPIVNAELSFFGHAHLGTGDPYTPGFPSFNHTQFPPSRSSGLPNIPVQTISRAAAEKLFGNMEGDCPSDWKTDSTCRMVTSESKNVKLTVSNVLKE
# protocolDetails: primary ELISA; also: test concentration or dose not given here
readoutLabel: RLU (RLU)
The reply should be a number in RLU, with the unit left off.

// known answers, use as guide
get_value(item= CD71-binding FN3 domain of SEQ ID NO: 523 (designed binder) MLPAPKNLVVSRVTEDSARLSWTAPDAAFDSFFIGYLEPQPPGEAIDLLVPGSERSYDLTGLKPGTEYNVTIQGVKGGFPSEPLTAEFTT , readout=RLU) returns 4.31e+06

RLU reading for CD71-binding FN3 domain of SEQ ID NO: 531 (designed binder) MLPAPKNLVVSRVTEDSARLSWTAPDAAFDSFEIGYFEYSYYGEAIVLTVPGSERSYDLTGLKPGTEYRVYIGGVKGGGWSRPLSAIFTT : 4.16e+06

Summary for this binder, CD71-binding FN3 domain of SEQ ID NO: 519 (designed binder) MLPAPKNLVVSRVTEDSARLSWTAPDAAFDSFPIAYPEHLPPGEAIVLTVPGSERSYDLTGLKPGTEYPVNIRGVKGGFVSFPLSAIFTT : RLU is 5.24e+06

---
Recorded result, CD71-binding FN3 domain of SEQ ID NO: 521 (designed binder) MLPAPKNLVVSRVTEDSARLSWTAPDAAFDSFFIGYLEPQPPGEAIVLWVPGSERSYDLTGLKPGTEYNVTIQGVKGGFPSHPLVAHFTT , RLU: 5.38e+06

Value of measured RLU for the entry CD71-binding FN3 domain of SEQ ID NO: 491 (designed binder) MLPAPKNLVVSRVTEDSARLSWTAPDAAFDSFFIGYLEPQPSGEAIHLIVPGSERSYDLTGLKPGTEYNVTIQGVKGGFPSDPLVASFTT : 5.07e+06

Quick note, RLU for CD71-binding FN3 domain of SEQ ID NO: 494 (designed binder) MLPAPKNLVVSRVTEDSARLSWTTPDAAFDSFFIGYLEPQPPGEAISLYVPGSERSYDLTGLKPGTEYNVTIQGVKGGFPSMPLSAIFTT landed at 3.32e+06

Given item CD71-binding FN3 domain of SEQ ID NO: 502 (designed binder) MLPAPKNLVVSRVTEDSARLSWTAPDAAFDSFFIGYLEPQPPGEAIGLHVPGSERSYDLTGLKPGTEYNVTIQGVKGGFPSIPLEAKFTT , the value recorded as its RLU is 2.34e+06
